target: T1, human platelet glycoprotein I(b)α (GPIbα) on human platelets (human, UniProt P07359 17-652); assay: flow cytometry on washed platelets, 2.5-5 µg/mL, FITC anti-human-Fab detection
T1 construct: whole, on cells; also called human GPIbα
T1 sequence (P07359 17-652): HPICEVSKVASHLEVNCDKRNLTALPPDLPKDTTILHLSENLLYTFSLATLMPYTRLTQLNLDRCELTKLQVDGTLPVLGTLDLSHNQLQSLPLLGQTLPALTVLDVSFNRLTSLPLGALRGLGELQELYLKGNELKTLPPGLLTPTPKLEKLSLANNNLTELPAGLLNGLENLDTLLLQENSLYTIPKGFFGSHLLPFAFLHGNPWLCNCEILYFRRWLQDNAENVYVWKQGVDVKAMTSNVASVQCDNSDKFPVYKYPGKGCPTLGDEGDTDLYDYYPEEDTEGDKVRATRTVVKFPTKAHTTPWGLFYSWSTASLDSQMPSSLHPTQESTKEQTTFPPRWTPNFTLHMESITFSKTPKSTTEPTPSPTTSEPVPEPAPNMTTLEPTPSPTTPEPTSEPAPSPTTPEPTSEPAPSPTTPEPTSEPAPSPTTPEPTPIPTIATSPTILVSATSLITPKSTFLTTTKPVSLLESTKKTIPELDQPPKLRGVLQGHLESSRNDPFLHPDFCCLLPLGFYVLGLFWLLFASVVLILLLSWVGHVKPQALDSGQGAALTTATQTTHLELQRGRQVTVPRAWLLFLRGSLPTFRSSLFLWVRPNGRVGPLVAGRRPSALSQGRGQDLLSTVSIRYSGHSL

{"columns": ["binder", "binding result"],
 "data": [
  ["humanized Fab H004 (Fab, V domains shown, Fab with human IgG1 CH1 and human kappa constant region; also called VH3 + VL2) VH: EVQLVESGGGLVQPGGSLRLSCAASGFTFSSFAMSWVRQAPGKGLEWVSSITSAGTPYYPDSVLGRFTISRDNSKNTLYLQMNSLRAEDTAVYYCAKSRGYEDYFDYWGQGTLVTVSS VL: DIQMTQSPSSLSASVGDRVTITCKSSQSLLNSRNQKNYLAWYQQKPGKAPKLLIYFTSTRESGVPSRFSGSGSGTDFTLTISSLQPEDFATYYCQQHYSSPWTFGQGTKVEIKR", "binds"],
  ["humanized Fab H003 (Fab, V domains shown, Fab with human IgG1 CH1 and human kappa constant region; also called VH2 + VL1) VH: EVQLVESGGGLVKPGGSLRLSCAASGFTFSSFAMSWVRQAPGKGLEWVSSITSAGTPYYPDSVLGRFTISRDNAKNSLYLQMNSLRAEDTAVYYCARSRGYEDYFDYWGQGTTVTVSR VL: DIVMTQSPDSLAVSLGERATINCKSSQSLLNSRNQKNYLAWYQQKPGQPPKLLIYFTSTRESGVPDRFSGSGSGTDFTLTISSLQAEDVAVYYCQQHYSSPWTFGGGTKLEIKR", "binds"],
  ["humanized Fab H007 (Fab, V domains shown, Fab with human IgG1 CH1 and human kappa constant region; also called VH4 + VL2) VH: QVQLVESGGGVVQPGRSLRLSCAASGFTFSSFAMSWVRQAPGKGLEWVASITSAGTPYYPDSVLGRFTISRDNSKNTLYLQMNSLRAEDTAVYYCARSRGYEDYFDYWGQGTLVTVSS VL: DIQMTQSPSSLSASVGDRVTITCKSSQSLLNSRNQKNYLAWYQQKPGKAPKLLIYFTSTRESGVPSRFSGSGSGTDFTLTISSLQPEDFATYYCQQHYSSPWTFGQGTKVEIKR", "binds"]
]}

All figures here come from patent US12617863.
